B1: glmS ribozyme (parent)
chain: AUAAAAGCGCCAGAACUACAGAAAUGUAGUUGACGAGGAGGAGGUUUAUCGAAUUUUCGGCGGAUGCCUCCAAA

- Variants of: B1
- Experiment Summary: self-cleavage kobs at 10000 uM GlcN6P; higher = faster cleavage; RNA array
- Condition Summary: with glucosamine-6-phosphate
Fewer inactive variants are shown than the library holds.
Quick rule for you: self-cleavage kobs at 10000 uM GlcN6P at 0.0004 s⁻¹ or higher means met, lower means not met.

{"Entry Sequence": "AUAAAAGCGCCAGAACUACAGAAAUGUAGUUGACGAGGAGGAGGUUUAUCGAAUUUUCGGUGGAUGCCUUCAAA", "Class Label": "not met"}

Asked: # bool: self-cleavage kobs at 10000 uM GlcN6P of AUAAAAGCGCCGGAACUACAGAAAUGUAGUUGACGAGGAGGAGGUUUAUCGAAUUUUCGGCGGAUGCCUCCAAA >= 0.0004 s⁻¹
Given back: met

Asked: Follow-up item: AUAAAAGCGGCAGAACUACAGAAAUGUAGUUGACGAGGACGAGGUUUAUCGAAUUUUCGGCGGAUGCCUGCAAA
Given back: not met

Asked: Follow-up item: AUAAAAGCGCCACAACUACAGAAAUGUAGUUGACGAGGAGGAGGUUAAUCGAAUUUUCGGCGGAUGCCUCCAAA
Given back: not met

Asked: Follow-up item: AUAAAAGCGCCAGAACUACAGAAAUGUAAUUGAAGAGGAGGAGGUUUAUCGAAUUUUCGGCGGAUGCCUCCAAA
Given back: not met

Asked: Follow-up item: AUAAAAGCGCCAGAACUACAGAAAUGUAGUUGACGAGGAGGAGGUUUAACGAAUAUUCGGCGGAUGCCUCCAAA
Given back: not met

Asked: Follow-up item: AUAAAAGCGUCAGAACUACAGAAAUGUAGUUGACGAAGAGGAGGUUUAUCGAAUUUUCGGCGGAUGCCUCCAAA
Given back: not met
